Each record here notes measured SHR heart rate, time after administration 6 h.
Tested on: spontaneously hypertensive rats (SHR)
EXPERIMENT NOTES: Antihypertensive activity test: blood pressure and heart rate of spontaneously hypertensive rats (SHR)
Format: in vivo, rat
DETAILS: 200 mg/kg, 6 h, N = 8
Where a name gives a salt, the structure may show the parent alone.
REPORTED PROPERTY: SHR heart rate, time after administration 6 h (beat/min)

{"MOLECULE": "CCc1cccc(C(O)CO)c1 (centres unmarked)", "ENDPOINT RESULT": 373}
{"MOLECULE": "COCCc1ccc(OCC(O)CNC(C)C)cc1 (centres unmarked) [Metoprolol Hydrochloride, reference compound]", "ENDPOINT RESULT": 288}
{"MOLECULE": "Cc1ccc(C(O)CO)cc1 (centres unmarked)", "ENDPOINT RESULT": 336}
{"MOLECULE": "CCC(O)c1cccc(CO)c1 (centres unmarked)", "ENDPOINT RESULT": 320}
{"MOLECULE": "CCc1ccc(C(O)CO)cc1 (centres unmarked)", "ENDPOINT RESULT": 341}
